Tested on: HT29 colon
Assay: NCI-60 one-dose screen, 48 h
Details: 10 µM unless noted
This is part of a sample that, as a whole, favours compounds with a hit. Of some 83,000 tested, about 20% had one in any assay. Calls of active or inactive are those of the source. The calls were made as follows: active = growth percent below 10; inactive = the rest.
Choose one outcome from this list and give only that: active, inactive

molecule=Oc1[nH]c2ccc(Cl)cc2c1N=Nc1nc(N=Nc2c(O)[nH]c3ccc(Cl)cc23)nc(N2CCOCC2)n1 class_label=inactive
molecule=COc1ccc(-c2cc(-c3ccc(N(C)C)cc3)n3c(n2)nc2ccccc23)cc1 class_label=inactive

Problem: Name the outcome recorded for "O=C(CCCCCCNC(=O)C(O)(O)C(F)(F)F)Nc1nc2ccccc2s1" in the assay.
Result: active

Problem: Name the outcome recorded for "CN1CCN(c2ccc(Nc3nc(NCCCNS(=O)(=O)c4ccccc4)c4sccc4n3)cc2)CC1" in the assay.
Result: active

Problem: Name the outcome recorded for "O=C1[C@H]2Cc3c([nH]c4ccccc34)[C@H](c3ccc(Cl)cc3)N2C(=O)CN1C1CCN(CC2CCCCC2)CC1" in the assay.
Result: active

Problem: Name the outcome recorded for "NS(=O)(=O)c1nnc(/N=C/c2c(O)[nH]c3ccccc23)s1" in the assay.
Result: inactive

Problem: Name the outcome recorded for "O=C1C(SCc2ccccc2)=C(Cl)CN1c1ccc(Cl)cc1" in the assay.
Result: inactive

----------
Test system: KM12 colon
Experiment: NCI-60 one-dose screen, 48 h
Settings: 10 µM unless noted
About 83,000 compounds went through this panel and 20% of them were active in at least one assay; those are over-represented in the sample as a whole. Activity calls are given as the source filed them. Rule for the calls: active = growth percent below 10; inactive = the rest.
Choose one outcome from this list and give only that: True for active, False for inactive

molecule_smiles=COc1ccc(C(=NNS(=O)(=O)c2ccc(C)cc2)c2ccccc2)cc1OC class_label=False
molecule_smiles=Cc1ccc2c(n1)C(=O)C(Cl)=C(Nc1cccc(C)c1C)C2=O class_label=False
molecule_smiles=C/C(=N\NC(N)=S)c1nnn(-c2ccc([N+](=O)[O-])cc2)c1C class_label=False
molecule_smiles=CNC(=O)c1cc(Oc2ccc3c(c2)sc2nc(-c4ccc(N(C)C)cc4)cn23)ccn1 class_label=False

Problem: Name the outcome recorded for "CN(C)CCNc1ccc2ncc(C#Cc3cncc(C(=O)Nc4ccc(CN5CCN(C)CC5)c(C(F)(F)F)c4)c3)n2n1" in the assay.
Result: True

----------
Each entry below lists one item and its recorded growth value.
Test system: SW-620 colon
Test: NCI-60 one-dose screen, 48 h (100 = growth as untreated, 0 = no growth, -100 = all killed)
Settings: 10 µM unless noted
This is part of a sample that, as a whole, favours compounds with a hit. Of some 83,000 tested, about 20% had one in any assay.
Quick reminder: number only, in %, skip the unit.

compound=CN1CCN(Cc2ccc(NC(=O)c3cncc(C#Cc4cnc(N)nc4)c3)cc2C(F)(F)F)CC1 assay_target="SW-620 colon" measured_quantity=growth unit_of_measurement=% recorded_result=10.4
compound="CC[C@]12CC(C(=O)OC)=C3Nc4ccccc4[C@@]34CCN(C14)[C@@H]1c3cc4c(cc3O[C@@H]1[C@H]2O)NC1=C(C(=O)OC)C[C@@]2(CC)C3N(CC[C@@]143)C[C@H]1O[C@H]12 (some centres undefined)" assay_target="SW-620 colon" measured_quantity=growth unit_of_measurement=% recorded_result=23.5
compound="O=C1c2ccccc2C23C(=C(c4cncnc4)c4ccccc42)CCCN13 (centres undefined)" assay_target="SW-620 colon" measured_quantity=growth unit_of_measurement=% recorded_result=103
compound=CN1CCN(c2ccc(Nc3nc(NCCNC(=O)c4ccccc4)c4sccc4n3)cc2)CC1 assay_target="SW-620 colon" measured_quantity=growth unit_of_measurement=% recorded_result=49.1
compound=Cc1ccc(NC(=O)Nc2nc3ccc([N+](=O)[O-])cc3s2)cc1 assay_target="SW-620 colon" measured_quantity=growth unit_of_measurement=% recorded_result=8.56

Query "CCCC[n+]1ccc(SCC(=O)n2ccc3ccccc32)c2ccccc21" yields growth of 102

Query "COC(=O)c1cccc(NC2=C(Cl)C(=O)C(C)=C(C)C2=O)c1" yields growth of 103

Query "COc1ccccc1Cn1cc(C#N)c(N)c1C(=O)c1ccc(Br)cc1" yields growth of 100

Query NC1[C@H]2CN(c3cnc(C(=O)Nc4cc(F)cc5cccnc45)cn3)C[C@@H]12 (some centres undefined) yields growth of 47.6

----------
Tested on: MCF7 breast
Experiment: NCI-60 one-dose screen, 48 h (100 = growth as untreated, 0 = no growth, -100 = all killed)
Details: 10 µM unless noted
Compounds without any hit were thinned out: in the full panel of roughly 83,000, 20% have a hit.
Rule: growth below 50% gives YES, anything at or above gives NO.

These solved cases illustrate the format of a correct answer.
compound="C/C(=C(/C)C1CC1CCNC1CCC(NC(=O)OC(C)(C)C)CC1)c1ccccc1 (stereo not given)" class_label=YES
compound=COc1ccc(Cn2cc(C#N)c(N)c2C(C)=O)cc1 class_label=NO
compound=COc1ccc(NC(=O)CCCCCCNC(=O)C(O)(O)C(F)(F)F)cc1 class_label=YES
compound=C#Cc1cc(C(=O)Nc2ccc(CNCCN3CCOCC3)c(C(F)(F)F)c2)ccc1C class_label=NO

Now for another entry.
Problem: is_below(growth, 50%) for "Cn1cc(-c2nc(N)nnc2-c2c[nH]c3ccc(Br)cc23)c2cc(F)ccc21" ?
Result: YES

----------
Tested on: CAKI-1 renal
Assay: NCI-60 one-dose screen, 48 h (100 = growth as untreated, 0 = no growth, -100 = all killed)
Conditions: 10 µM unless noted
The panel holds about 83,000 compounds, 20% with a hit somewhere; the sample as a whole holds those more often.
Hi, to clarify the labels: yes (1) covers growth from 30% upward, no (0) covers anything below 30%.

molecule_smiles=COC(=O)N1CCN(CCNCc2ccc(NC(=O)c3ccc(C)c(C#Cc4cnc5cccnn45)c3)cc2C(F)(F)F)CC1 class_label="no (0)"
molecule_smiles=CCOC(=O)c1c(NC(=O)c2cccc(C(F)(F)F)c2)sc2c1CCC(=O)C2 class_label="no (0)"
molecule_smiles=COc1cc2c3c(cc4c5c(ccc4c3c1OC)OCO5)N(CCN(C)C)C2=O class_label="no (0)"
molecule_smiles=CNCCN(C)c1ccc(Nc2cc(NC3CC3)n3ncc(C#N)c3n2)cc1NC(C)=O class_label="no (0)"

Problem: Is growth for "COc1ccc(/C(=N\N=C(N)N)c2ccc(Cl)cc2)cc1OC" at or above 30%?
Result: yes (1)

Problem: Is growth for "C#CCN(C)CCCOc1ccc(NC(=O)CCCCCCCCC(=O)NO)cc1Cl" at or above 30%?
Result: yes (1)

Problem: Is growth for "CCc1nnc(NC(=O)c2cc(-c3ccc(Cl)cc3Cl)oc2C)s1" at or above 30%?
Result: yes (1)

Problem: Is growth for "CCCCCCNC(=O)Oc1ccc(/C(=C(/C)c2ccc(Cl)cc2)c2ccc(OCCN3CCCCCC3)cc2)cc1" at or above 30%?
Result: yes (1)

Problem: Is growth for "C1=CC(c2nn3c(-c4ccccc4)nnc3s2)=Cc2ccccc2O1" at or above 30%?
Result: yes (1)

----------
Test system: SW-620 colon
Test: NCI-60 one-dose screen, 48 h (100 = growth as untreated, 0 = no growth, -100 = all killed)
Settings: 10 µM unless noted
The panel holds about 83,000 compounds, 20% with a hit somewhere; the sample as a whole holds those more often.
measured-quantity: growth (%)
Quick reminder: number only, in %, skip the unit.

compound=COc1cc2cc(Oc3ccc(NC(=O)c4cc(C(F)(F)F)cc(C(F)(F)F)c4)cc3)c(C)nc2cc1OCCN1CCOCC1 assay_target="SW-620 colon" measured_quantity=growth recorded_result=97.2
compound=COc1ccc(N2CCN(C3=C(Cl)C(=O)c4ncccc4C3=O)CC2)cc1 assay_target="SW-620 colon" measured_quantity=growth recorded_result=-4.75
compound=CN1CCN(Cc2ccc(NC(=O)c3cncc(C#Cc4cnc5ccc(OCC(F)F)nn45)c3)cc2C(F)(F)F)CC1 assay_target="SW-620 colon" measured_quantity=growth recorded_result=-49.1
compound=COc1ccc(/C=N/N=C(/c2ccccc2)c2ccc3nc(-c4ccc(Cl)cc4)[nH]c3c2)cc1 assay_target="SW-620 colon" measured_quantity=growth recorded_result=88.3
compound=CCCCOc1ccc(S(=O)(=O)N2CCN(c3nc(C)cc(N4CCOCC4)n3)CC2)cc1 assay_target="SW-620 colon" measured_quantity=growth recorded_result=28.9
compound=O=S(=O)(Oc1ccc(-c2cn3ccoc3n2)cc1)C1CCCCC1 assay_target="SW-620 colon" measured_quantity=growth recorded_result=103
compound="CCCCN1C(=O)/C(=c2\\sc3n(c2=O)C2C(NN=3)N(CC)C(=O)N2CC)c2cccc(C)c21 (centres undefined)" assay_target="SW-620 colon" measured_quantity=growth recorded_result=39.7
compound=C#CCOc1ccc(/C=N/Nc2nc(-c3ccc(OC)cc3)cs2)cc1 assay_target="SW-620 colon" measured_quantity=growth recorded_result=93.3
compound=Cn1cc(-c2cc3ncnc(Nc4ccc(NC(=O)Nc5cc(C(C)(C)C)on5)cc4)c3s2)cn1 assay_target="SW-620 colon" measured_quantity=growth recorded_result=24.4
compound=CC1(C)C=Cc2cc(/C(N)=N/C(N)=N/c3nc4ccccc4s3)ccc2O1 assay_target="SW-620 colon" measured_quantity=growth recorded_result=102

Query "NCCNC(=O)c1cccc(COc2ccccc2NC(=O)c2cc(Cl)c(Cl)[nH]2)c1" yields growth of 111

Query "CS(=O)(=O)c1nccc(-c2c(-c3cccc(OCc4ccc(Cl)c(C(F)(F)F)c4)c3)nc3sccn23)n1" yields growth of 61.2

Query "CCc1cc2c(cc1Cl)nc1c(=O)[nH]c(=O)nc-1n2CCOCC(C)C" yields growth of 70.2

Query "O=C(/C=C/c1ccccc1Cl)Nc1ncc(Cc2cc(Cl)ccc2Cl)s1" yields growth of 14.3

Query "O=C(CCl)Nc1ccc(NC(=O)c2cc(Cl)ccc2O)c(Cl)c1" yields growth of 35.2

Query CC(Nc1ncnc2ccc(-c3cnc4cnccn34)cc12)c1ccccc1 (centres undefined) yields growth of 85.7

Query "COc1cc(/C=N\NC(=O)c2ccc3nc(-c4ccc(Br)cc4)[nH]c3c2)cc(OC)c1OC" yields growth of 79.1

Query "C[C@@H]1OCC2(CCN(c3cnc(C(=O)Nc4cc(F)cc5cccnc45)cn3)CC2)[C@@H]1N" yields growth of 12.5

Query "Cc1ccc([C@H]2c3[nH]c4ccccc4c3C[C@H]3C(=O)N(CCCCCCC(=O)NO)CC(=O)N23)s1" yields growth of 51.9
